# Target system: YES (Homo sapiens (Human))
# Sequence (P07947 whole entry): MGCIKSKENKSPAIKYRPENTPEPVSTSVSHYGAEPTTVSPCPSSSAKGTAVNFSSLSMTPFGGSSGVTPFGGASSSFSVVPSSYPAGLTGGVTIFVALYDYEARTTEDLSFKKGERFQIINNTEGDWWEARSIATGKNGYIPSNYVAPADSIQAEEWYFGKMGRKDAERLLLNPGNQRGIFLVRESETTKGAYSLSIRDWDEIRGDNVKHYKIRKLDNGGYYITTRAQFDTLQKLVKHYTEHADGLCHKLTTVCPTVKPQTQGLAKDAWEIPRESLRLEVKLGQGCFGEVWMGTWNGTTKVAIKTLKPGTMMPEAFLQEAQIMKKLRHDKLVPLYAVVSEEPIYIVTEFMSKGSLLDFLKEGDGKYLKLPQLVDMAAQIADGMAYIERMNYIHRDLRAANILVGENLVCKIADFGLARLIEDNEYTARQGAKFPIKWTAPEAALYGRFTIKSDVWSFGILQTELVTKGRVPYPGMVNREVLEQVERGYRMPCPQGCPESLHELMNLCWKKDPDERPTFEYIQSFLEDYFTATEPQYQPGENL
# Test details: Kinase screening assay (IC50)
pIC50: −log10 of the molar value.
Quantity measured: pIC50

What value of pIC50 has been reported for the following molecule? `COc1cc(-c2nn(CCN3CCC(CN(C)C)CC3)c3ncnc(N)c23)ccc1NC(=O)OC(C)(C)C`
> 9.30

---

# Target system: LCK (Homo sapiens (Human))
# Test details: Kinase screening assay (IC50)
pIC50: −log10 of the molar value.
Catalogue of pIC50 values

// solved cases for pIC50 follow
COc1cc(-c2nn(CCN3CCC(N(C)C)CC3)c3ncnc(N)c23)ccc1NC(=O)NC(C)(C)C [Compound 540]: 7.00 to 8.00
CN(C)C1CCN(CCn2nc(-c3ccc(NC(=O)OC(C)(C)C)cc3)c3c(N)ncnc32)CC1 [Compound 543]: 7.00 to 8.00

Kindly consider the entry below.
I have this compound here, COc1cc(-c2nn(CCN3CCC(N(C)C)CC3)c3ncnc(N)c23)ccc1NC(=O)CC(C)(C)C [Compound 526] , and I need its recorded pIC50.
7.00 to 8.00

---

# Target system: BLK (Homo sapiens (Human))
# Sequence (P51451 whole entry): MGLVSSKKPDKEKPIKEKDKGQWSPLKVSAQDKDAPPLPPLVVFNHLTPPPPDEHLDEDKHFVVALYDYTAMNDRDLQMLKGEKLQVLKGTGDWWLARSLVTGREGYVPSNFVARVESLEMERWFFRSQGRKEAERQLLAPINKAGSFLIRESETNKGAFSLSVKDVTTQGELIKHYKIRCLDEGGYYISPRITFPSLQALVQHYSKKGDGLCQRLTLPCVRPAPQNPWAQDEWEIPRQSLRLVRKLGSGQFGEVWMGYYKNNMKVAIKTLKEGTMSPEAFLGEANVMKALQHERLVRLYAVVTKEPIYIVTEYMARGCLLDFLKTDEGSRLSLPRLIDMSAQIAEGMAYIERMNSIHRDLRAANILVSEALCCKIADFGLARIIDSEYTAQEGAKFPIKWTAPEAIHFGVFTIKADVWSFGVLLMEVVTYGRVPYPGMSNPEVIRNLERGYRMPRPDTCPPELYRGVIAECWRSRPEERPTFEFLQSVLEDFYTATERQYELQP
# Test details: Kinase screening assay (IC50)
# Details: read-out: Target inhibition (IC50) BLK; 10 μM ATP
Measured IC50 by item

Would you please look over these solved cases?
Cc1ccc(-c2nn(CCN3CCN(C)CC3)c3ncnc(N)c23)cc1: > 1000 nM
Cc1ccc(-c2nn(CCN3CCC(CN(C)C)CC3)c3ncnc(N)c23)cc1: > 1000 nM
COc1cc(-c2nn(CCN3CCC(CN(C)C)CC3)c3ncnc(N)c23)ccc1NC(=O)OC(C)(C)C: < 10 nM
COc1cc(-c2nn(CCN3CCC(N(C)C)CC3)c3ncnc(N)c23)ccc1NCc1ccccc1: < 10 nM
COc1cc(-c2nn(CCN3CCC(N4CCCCC4)CC3)c3ncnc(N)c23)ccc1NC(=O)OC(C)(C)C: < 10 nM
Cc1ccc(-c2nn(CCN3CCN(CCN(C)C)CC3)c3ncnc(N)c23)cc1: > 1000 nM
COc1cc(-c2nn(CCN3CCC(N(C)C)CC3)c3ncnc(N)c23)ccc1CC(=O)OC(C)(C)C: < 10 nM

Please look at the following molecule next.
Given the entry `COc1cc(-c2nn(CCN3CCC(N4CCCC4)CC3)c3ncnc(N)c23)ccc1NC(=O)OC(C)(C)C` , report its measured IC50.
< 10 nM

---

# Target system: FRK/PTK5 (Homo sapiens (Human), UniProt P42685)
# Sequence (P42685 whole entry): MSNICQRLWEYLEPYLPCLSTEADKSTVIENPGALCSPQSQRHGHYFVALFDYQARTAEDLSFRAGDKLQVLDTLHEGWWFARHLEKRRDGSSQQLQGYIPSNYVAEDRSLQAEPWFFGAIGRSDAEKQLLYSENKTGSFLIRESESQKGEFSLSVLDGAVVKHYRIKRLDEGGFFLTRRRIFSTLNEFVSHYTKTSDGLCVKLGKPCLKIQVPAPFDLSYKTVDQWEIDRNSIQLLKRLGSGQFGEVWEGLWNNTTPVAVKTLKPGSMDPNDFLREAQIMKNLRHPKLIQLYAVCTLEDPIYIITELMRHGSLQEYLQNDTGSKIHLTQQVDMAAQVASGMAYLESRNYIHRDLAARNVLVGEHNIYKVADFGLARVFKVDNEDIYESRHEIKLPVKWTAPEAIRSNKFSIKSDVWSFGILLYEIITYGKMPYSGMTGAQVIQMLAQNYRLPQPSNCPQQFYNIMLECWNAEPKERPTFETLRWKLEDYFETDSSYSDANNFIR
# Test details: Kinase screening assay (IC50)
# Details: read-out: Kinase Screening (IC50) FRK; Src Family
In this section we review reported IC50 values for a set of compounds.

COc1cc(-c2nn(CCN3CCC(N4CCCC4)CC3)c3ncnc(N)c23)ccc1NC(=O)OC(C)(C)C: < 10 nM
COc1cc(-c2nn(CCN3CCC(N4CCCCC4)CC3)c3ncnc(N)c23)ccc1NC(=O)OC(C)(C)C: < 10 nM

Alright, here's another compound for you.
Which measured IC50 value corresponds to `COc1cc(-c2nn(CCN3CCC(N(C)C)CC3)c3ncnc(N)c23)ccc1CC(=O)OC(C)(C)C` ?
< 10 nM

---

# Target system: CYP1A2 (Homo sapiens (Human))
# Sequence (P05177 whole entry): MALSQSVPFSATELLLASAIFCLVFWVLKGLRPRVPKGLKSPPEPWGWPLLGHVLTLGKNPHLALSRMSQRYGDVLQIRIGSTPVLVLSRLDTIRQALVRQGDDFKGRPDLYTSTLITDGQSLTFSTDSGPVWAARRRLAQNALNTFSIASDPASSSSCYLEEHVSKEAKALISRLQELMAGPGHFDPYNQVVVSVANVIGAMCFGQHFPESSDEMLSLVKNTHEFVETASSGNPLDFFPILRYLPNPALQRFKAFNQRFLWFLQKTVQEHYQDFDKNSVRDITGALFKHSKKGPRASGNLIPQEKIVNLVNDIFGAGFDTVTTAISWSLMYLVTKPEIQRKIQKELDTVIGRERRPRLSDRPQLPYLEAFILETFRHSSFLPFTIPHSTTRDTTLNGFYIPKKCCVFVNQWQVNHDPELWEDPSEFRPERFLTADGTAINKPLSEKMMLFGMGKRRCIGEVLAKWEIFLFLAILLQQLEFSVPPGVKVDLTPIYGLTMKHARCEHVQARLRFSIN
# Test details: CYP P450 inhibition
Quantity measured: inhibition at 10 µM
# answer = value followed by unit

Find the recorded inhibition at 10 µM belonging to COc1cc(-c2nn(CCN3CCC(N(C)C)CC3)c3ncnc(N)c23)ccc1NC(=O)OC(C)(C)C [Compound 506] and report it.
24.6%

---

# Target system: UniProt:P11712
# Sequence (P11712 whole entry): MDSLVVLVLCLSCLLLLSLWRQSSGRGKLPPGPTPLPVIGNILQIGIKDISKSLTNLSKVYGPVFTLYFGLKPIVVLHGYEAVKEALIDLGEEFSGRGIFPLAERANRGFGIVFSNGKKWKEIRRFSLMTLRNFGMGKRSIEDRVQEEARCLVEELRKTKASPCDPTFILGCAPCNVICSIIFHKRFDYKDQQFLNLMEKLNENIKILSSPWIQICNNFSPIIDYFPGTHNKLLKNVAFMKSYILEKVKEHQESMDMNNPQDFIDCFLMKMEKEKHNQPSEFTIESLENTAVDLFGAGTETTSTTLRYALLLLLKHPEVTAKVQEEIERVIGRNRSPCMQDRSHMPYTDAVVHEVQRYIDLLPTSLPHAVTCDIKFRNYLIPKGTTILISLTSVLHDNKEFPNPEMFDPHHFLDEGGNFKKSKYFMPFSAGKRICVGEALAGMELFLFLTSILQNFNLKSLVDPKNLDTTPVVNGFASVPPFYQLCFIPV
# Test details: CYP P450 inhibition
Recorded inhibition at 10 µM by entry
I only need the number, in %, no unit after it.

COc1cc(-c2nn(CCN3CCC(N(C)C)CC3)c3ncnc(N)c23)ccc1NCc1ccccc1: -35.4
COc1cc(-c2nn(CCN3CCC(N4CCCC4)CC3)c3ncnc(N)c23)ccc1NC(=O)OC(C)(C)C: -92.3
COc1cc(-c2nn(CCN3CCC(N(C)C)CC3)c3ncnc(N)c23)ccc1NC(=O)OC(C)(C)C: -23.1
COc1cc(-c2nn(CCN3CCC(N4CCCCC4)CC3)c3ncnc(N)c23)ccc1NC(=O)OC(C)(C)C: -70.3

# ---- query compound ----
Sample `COc1cc(-c2nn(CCN3CCC(N(C)C)CC3)c3ncnc(N)c23)ccc1CC(=O)OC(C)(C)C` — what was its inhibition at 10 µM?
-35.8

---

# Target system: RET (Homo sapiens (Human), UniProt P07949)
# Sequence (P07949 29-1114): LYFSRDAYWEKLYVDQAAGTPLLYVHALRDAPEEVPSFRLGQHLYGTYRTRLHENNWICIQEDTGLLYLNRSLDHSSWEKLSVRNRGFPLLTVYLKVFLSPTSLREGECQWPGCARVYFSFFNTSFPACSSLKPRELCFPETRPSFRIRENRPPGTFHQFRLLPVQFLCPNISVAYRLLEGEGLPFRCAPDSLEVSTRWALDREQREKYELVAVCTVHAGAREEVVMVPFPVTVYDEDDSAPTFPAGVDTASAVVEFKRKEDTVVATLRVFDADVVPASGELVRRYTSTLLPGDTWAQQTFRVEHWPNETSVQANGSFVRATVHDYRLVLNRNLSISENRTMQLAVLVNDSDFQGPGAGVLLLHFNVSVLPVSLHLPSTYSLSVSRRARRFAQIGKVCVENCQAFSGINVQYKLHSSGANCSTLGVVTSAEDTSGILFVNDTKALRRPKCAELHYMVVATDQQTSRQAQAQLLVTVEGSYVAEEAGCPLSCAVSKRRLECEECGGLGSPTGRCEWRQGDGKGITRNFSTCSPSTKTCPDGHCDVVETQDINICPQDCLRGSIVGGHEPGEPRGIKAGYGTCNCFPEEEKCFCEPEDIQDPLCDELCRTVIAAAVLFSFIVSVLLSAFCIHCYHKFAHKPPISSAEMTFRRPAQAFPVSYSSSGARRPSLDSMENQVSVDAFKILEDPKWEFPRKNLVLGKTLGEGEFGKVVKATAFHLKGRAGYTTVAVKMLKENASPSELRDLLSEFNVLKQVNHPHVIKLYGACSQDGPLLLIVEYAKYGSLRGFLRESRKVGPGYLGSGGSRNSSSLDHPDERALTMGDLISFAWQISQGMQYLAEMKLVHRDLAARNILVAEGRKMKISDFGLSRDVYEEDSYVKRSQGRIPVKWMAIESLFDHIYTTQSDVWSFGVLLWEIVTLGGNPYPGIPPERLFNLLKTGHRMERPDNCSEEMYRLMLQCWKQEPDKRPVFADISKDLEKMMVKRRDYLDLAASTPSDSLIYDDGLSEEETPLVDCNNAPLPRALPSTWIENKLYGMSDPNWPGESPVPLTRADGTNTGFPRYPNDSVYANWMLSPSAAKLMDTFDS
# Test details: Kinase screening assay (IC50)
# Details: read-out: Kinase Screening (IC50) RET
pIC50: −log10 of the molar value.
Quantity measured: pIC50

COc1cc(-c2nn(CCN3CCC(N4CCCCC4)CC3)c3ncnc(N)c23)ccc1NC(=O)OC(C)(C)C [Compound 519]: < 6.00

Query: pIC50; subject: COc1cc(-c2nn(CCN3CCC(N(C)C)CC3)c3ncnc(N)c23)ccc1NC(=O)OC(C)(C)C [Compound 506]
< 6.00

Queued: COc1cc(-c2nn(CCN3CCC(N4CCCC4)CC3)c3ncnc(N)c23)ccc1NC(=O)OC(C)(C)C [Compound 518]
< 6.00

Record: COc1cc(-c2nn(CCN3CCC(N(C)C)CC3)c3ncnc(N)c23)ccc1NCc1ccccc1 [Compound 533]
< 6.00

Would you mind doing COc1cc(-c2nn(CCN3CCC(N(C)C)CC3)c3ncnc(N)c23)ccc1CC(=O)OC(C)(C)C [Compound 565] as well?
< 6.00

Now the same for CN(C)C1CCN(CCn2nc(-c3ccc(CC(=O)OC(C)(C)C)cc3)c3c(N)ncnc32)CC1 [Compound 553]
< 6.00

---

# Tested on: MDA-MB-231 cells
# Test details: Cell viability assay (PrestoBlue)
# Format: cell-based
# Details: Homo sapiens, MDA-MB-231, 120 h, read-out: Antiproliferative activity (EC50) MDA-MB-231; cell viability at day 5
pEC50: −log10 of the molar value.
pEC50 values, listed per item

Worked cases, pEC50 given:
COc1cc(-c2ccn(CCN3CCC(N(C)C)CC3)n2)ccc1NC(=O)OC(C)(C)C: < 5.00
CN(C)C1CCN(CCn2nc(-c3ccc(CC#N)cc3)c3c(N)ncnc32)CC1: < 5.00

Look up pEC50 for this molecule: `COc1cc(-c2nn(CCN3CCC(N(C)C)CC3)c3ncnc(N)c23)ccc1NC(=O)Cc1ccccc1`
< 5.00

Next entry: `COc1cc(-c2nn(CCN3CCC(OC)CC3)c3ncnc(N)c23)ccc1NC(=O)OC(C)(C)C`
5.00 to 6.00

`COc1cc(-c2nn(CCN3CCC(N(C)C)CC3)c3ncnc(N)c23)ccc1NC(=O)CCc1ccccc1` ?
< 5.00

Input `COc1ccc(-c2nn(CCN3CCC(N(C)C)CC3)c3ncnc(N)c23)cc1NC(=O)OC(C)(C)C`
< 5.00

Now the same for COc1cc(-c2nn(CCN3CCCC(N(C)C)C3)c3ncnc(N)c23)ccc1NC(=O)OC(C)(C)C (stereo not shown)
5.00 to 6.00

What do we get for `CN(C)C1CCN(CCn2nc(-c3cccc(NC(=O)OC(C)(C)C)c3)c3c(N)ncnc32)CC1` ?
< 5.00

Record: `COc1cc(-c2nn(CCN3CCC(N(C)C)CC3)c3ncnc(N)c23)ccc1N`
5.00 to 6.00

Further, for `CN(C)C1CCN(CCn2nc(-c3ccc(NC(=O)OC(C)(C)C)nc3)c3c(N)ncnc32)CC1` ?
< 5.00

---

# Target system: LCK (Homo sapiens (Human), UniProt P06239)
# Sequence (P06239 whole entry): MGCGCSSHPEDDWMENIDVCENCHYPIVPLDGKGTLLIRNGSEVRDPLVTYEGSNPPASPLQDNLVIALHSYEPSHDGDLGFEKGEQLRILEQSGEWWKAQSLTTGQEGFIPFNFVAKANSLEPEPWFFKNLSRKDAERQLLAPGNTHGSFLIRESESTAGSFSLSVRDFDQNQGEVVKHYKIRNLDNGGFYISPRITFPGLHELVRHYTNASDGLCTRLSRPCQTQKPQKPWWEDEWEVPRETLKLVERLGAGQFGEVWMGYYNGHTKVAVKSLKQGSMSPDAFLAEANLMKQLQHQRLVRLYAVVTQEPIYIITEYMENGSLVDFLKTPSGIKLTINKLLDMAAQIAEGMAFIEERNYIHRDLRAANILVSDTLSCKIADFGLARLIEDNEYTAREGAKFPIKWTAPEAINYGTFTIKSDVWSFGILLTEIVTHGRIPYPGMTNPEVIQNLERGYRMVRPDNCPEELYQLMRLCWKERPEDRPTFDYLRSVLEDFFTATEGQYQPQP
# Test details: Kinase screening assay (IC50)
# Details: read-out: Target inhibition (IC50) LCK; 10 μM ATP
pIC50: −log10 of the molar value.
Quantity measured: pIC50

Past entries and their recorded results:
COc1cc(-c2nn(CCN3CCC(N(C)C)CC3)c3ncnc(N)c23)ccc1Cc1ncc(C)o1 [Compound 584]: > 8.00
Cc1ccc(-c2nn(CCN3CCN(CCN(C)C)CC3)c3ncnc(N)c23)cc1 [Compound 105]: < 6.00
COc1cc(-c2nn(CCN3CCC(CN(C)C)CC3)c3ncnc(N)c23)ccc1NC(=O)OC(C)(C)C [Compound 503]: > 8.00
Cc1ccc(-c2nn(CCN3CCC(CCN(C)C)CC3)c3ncnc(N)c23)cc1 [Compound 113]: < 6.00
COc1cc(-c2nn(CCN3CCC(N4CCCCC4)CC3)c3ncnc(N)c23)ccc1NC(=O)OC(C)(C)C [Compound 519]: > 8.00

Give the measured pIC50 of Cc1ccc(-c2nn(CCN3CCN(C)CC3)c3ncnc(N)c23)cc1 [Compound 103] .
< 6.00

Follow-up item: Cc1ccc(-c2nn(CCN3CCC(CN(C)C)CC3)c3ncnc(N)c23)cc1 [Compound 112]
< 6.00

// repeat for CN(C)C1CCN(CCn2nc(-c3ccc(CC(=O)OC(C)(C)C)cc3)c3c(N)ncnc32)CC1 [Compound 553] and report
> 8.00

Then this compound: COc1cc(-c2nn(CCN3CCC(N(C)C)CC3)c3ncnc(N)c23)ccc1NCc1ccccc1 [Compound 533]
> 8.00

Can you check COc1cc(-c2nn(CCN3CCC(N4CCCC4)CC3)c3ncnc(N)c23)ccc1NC(=O)OC(C)(C)C [Compound 518] next?
> 8.00

How about this compound: COc1cc(-c2nn(CCN3CCC(N(C)C)CC3)c3ncnc(N)c23)ccc1CC(=O)OC(C)(C)C [Compound 565]
> 8.00
